Test: fluorescence interference in NS3h assay format, artefact control for HCV NS3 helicase inhibitor project, biochemical, NIH Clinical Collection (AID 743272);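 also: HCV NS3 helicase with a Cy5 labelled single stranded DNA probe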
Conditions: fluorescence interference counterscreen, stronger effect = lower value
Please go through the items and note down their fluorescence ratio.
Answers are plain numbers.

Some molecules with recorded fluorescence ratio:
molecule	endpoint.name	experimental.result
CN=C(N)NCCC[C@H](N)C(=O)O	fluorescence ratio	0.93
Cc1cccc(C)c1NC(=O)C1CCCCN1C (stereo not given)	fluorescence ratio	0.95
CCCC1O[C@@H]2C[C@H]3[C@@H]4CCC5=CC(=O)C=C[C@]5(C)[C@H]4[C@@H](O)C[C@]3(C)[C@]2(C(=O)CO)O1 (stereo not given in full)	fluorescence ratio	0.99
C[C@H](CCC(=O)O)[C@H]1CC[C@H]2[C@@H]3[C@@H](O)C[C@@H]4C[C@H](O)CC[C@]4(C)[C@H]3CC[C@]12C	fluorescence ratio	0.97
CNCCCN1c2ccccc2CCc2ccccc21	fluorescence ratio	1.02

Return reported fluorescence ratio values for all items listed beneath this line.
1. CN1C(=O)CC[C@H]1c1cccnc1
2. CC[C@H]1OC(=O)[C@H](C)[C@@H](O[C@H]2C[C@@](C)(OC)[C@@H](O)[C@H](C)O2)[C@H](C)[C@@H](O[C@@H]2O[C@H](C)C[C@H](N(C)C)[C@H]2O)[C@](C)(OC)C[C@@H](C)C(=O)[C@H](C)[C@@H](O)[C@]1(C)O
3. C[N+]1(C)CCCC(OC(=O)C(O)(c2ccccc2)c2ccccc2)C1 (stereo not given)
4. CC(=O)O[C@]1(C(C)=O)CC[C@H]2[C@@H]3C[C@H](C)C4=CC(=O)CC[C@]4(C)[C@H]3CC[C@@]21C
5. COC(=O)C1=C(C)NC(C)=C(C(=O)OCCN(C)Cc2ccccc2)C1c1cccc([N+](=O)[O-])c1 (stereo not given)
6. Nc1ncnc2c1ncn2[C@@H]1O[C@H](CO)[C@@H](O)[C@@H]1O

[0.91, 0.99, 0.96, 0.97, 0.91, 1]

---

Assay: ovarian cancer cell viability with rucaparib, profiling panel, oncology-focused library, rucaparib conditional (AID 1508598)
Conditions: patient-derived ovarian cancer cells, CellTiter-Glo viability, 144 h; at 0.0195 µM; OCI-C5x cells; with rucaparib 10 µM; stronger effect = lower value; 100% = cells with rucaparib alone
endpoint.name: viability (%)
Answers are plain numbers, in %.

> print(dat)
                      structure.string  experimental.result
1  Cc1cc(O)c2c(c1)C(=O)c1cccc(O)c1C2=O                  115

Return reported viability values for all items listed beneath this line.
1. CN(C)c1nc(N(C)C)nc(N(C)C)n1
2. O=C(CCc1ccc(O)cc1)c1c(O)cc(O)cc1O

1. 113
2. 110

Return reported viability values for all items listed beneath this line.
1. C#Cc1cccc(Nc2ncnc3cc(OCCOC)c(OCCOC)cc23)c1
2. O=C(NOCC1CC1)c1ccc(F)c(F)c1Nc1ccc(I)cc1Cl

[105, 115]

viability reported for this compound `O=C(CCCCCCC(=O)Nc1ccccc1)NO` : 111

---

Assay: CellTiter-Glo luminescent readout of SW480 viability loss, NPC library primary (AID 1117343)
Settings: CellTiter-Glo luminescence; at 20 µM (top of the series) unless noted
Binarize viability decrease (inhibition) at 10%; below is T, at or above is F.

Some entries whose results are on file:
> print(dat)
                                   molecule  class
1  CC[N+](C)(CC)CCOC(=O)C1c2ccccc2Oc2ccccc21      T
2                  CCCCCCCCCCCCCCCC(=O)NCCO      T
3  Cc1c(C)n(CCN(C)C)c2ccc(C(=O)OCCN(C)C)cc12      F
4  CN(N=O)C(=O)N[C@@H]1[C@@H](O)[C@H](O)[C@@H](CO)O[C@@H]1O      F
5  COC(c1ccccc1)(c1ccccc1)[C@H](Oc1nc(C)cc(C)n1)C(=O)O      T

Moving on to the next molecule.
Please let me know if CCCS(=O)c1ccc2nc(NC(=O)OC)[nH]c2c1 (stereo unspecified) shows viability decrease (inhibition) below 10%.
F

---

Please go through the items and note down their viability decrease.
Assay: growth inhibition of GSK3B-pretreated HCT116 cells – cell-based, CellTiter-Glo, 0.2 to 20 µM (AID 1117336)
Details: HCT116 viability after GSK3B inhibitor, at 20 µM, stronger effect = higher value
Give bare numbers, in %.

Return reported viability decrease values for all items listed beneath this line.
1. COc1ccc2c(c1)C(=O)N(CCc1ccc(S(=O)(=O)NC(=O)NC3CCCCC3)cc1)C(=O)C2(C)C
2. CC(C(=O)O)c1cccc(C(=O)c2ccccc2)c1 (configuration not stated)
3. CN(C)CCn1nnnc1SCC1=C(C(=O)O)N2C(=O)[C@@H](NC(=O)Cc3csc(N)n3)[C@H]2SC1
4. Cc1oc(=O)oc1CN1CCN(c2cc3c(cc2F)c(=O)c(C(=O)O)c2n3C(C)S2)CC1 (configuration not stated)
5. O=C(O)Cc1ccc(-c2ccccc2)cc1

1. 87.4
2. 9.9
3. 4.6
4. 35.8
5. -34.7

Return reported viability decrease values for all items listed beneath this line.
1. COc1ccc(CCN(C)CCCC(C#N)(c2cc(OC)c(OC)c(OC)c2)C(C)C)cc1OC (configuration not stated)
2. CC(C)=CCC/C(C)=C/CO
3. O=S(=O)(O)NC1CCCCC1
4. CCCCCCCCCCCCCCCCNc1ccc(C(=O)O)cc1
5. O=C1OC2(c3ccc(O)cc3Oc3cc(O)ccc32)c2ccccc21

-1.5
-10.3
-5.65
68.9
6.1

---

Assay: glucagon-like peptide 1 release enhancers, primary assay, NCI-H716 cell line, NPC library (AID 1117341)
Settings: NCI-H716 cells, at 10 µM, stronger effect = higher value
endpoint.name: GLP1 secretion stimulation (%)
Answers are plain numbers, in %.

Some compounds with recorded GLP1 secretion stimulation:
> print(dat)
                         compound  experimental.result
1    NC(=O)c1cn(Cc2c(F)cccc2F)nn1                 -0.1
2  CCCCOCCOCCOCc1cc2c(cc1CCC)OCO2                 -2.6
3    CCCN(CCC)CCc1cccc2c1CC(=O)N2                  3.9
4        CCCCCCCCCCCCCCCC(=O)NCCO                 -1.8

Return reported GLP1 secretion stimulation values for all items listed beneath this line.
1. CCN(CC)CCNC(C(=O)OCCC(C)C)c1ccccc1 (configuration not stated)
2. Cc1cccc(Nc2cc(Cl)nc(SCC(=O)O)n2)c1C
3. O=C(Nc1ccccc1)OCC(CN1CCCCC1)OC(=O)Nc1ccccc1 (configuration not stated)

8.2
-3.8
-0.5

---

Assay: SU-DIPG-VI glioma cell viability, MIPE4.0 library, CellTiter-Glo luminescence, qHTS (AID 1347066);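 also: cells exposed to compound for 48 hours before readout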
Conditions: CellTiter-Glo ATP luminescence
Results filed as inconclusive are left out. Activity calls are given as the source filed them. No cut-off is given here; in the data, nearly all actives have AC50 up to about 30 µM.
In this exercise, the only acceptable responses are 1.0 (active), 0.0 (inactive)

Some entries whose results are on file:
> print(dat)
                                   molecule  class
1  C=CC1=C(C(=O)O)N2C(=O)[C@@H](NC(=O)/C(=N\O)c3csc(N)n3)[C@H]2SC1 (stereo in doubt)    0.0
2       COc1ccc(-c2coc3cc(O)cc(O)c3c2=O)cc1    0.0
3  CC(C)C[C@H](NC(=O)[C@H](Cc1ccccc1)NC(=O)c1cnccn1)B(O)O    1.0
4  O=C(O)CCn1c2c(c3ccccc31)C[C@H](NS(=O)(=O)c1ccc(F)cc1)CC2    0.0
5  CC#C[C@]1(O)CC[C@H]2[C@@H]3CCC4=CC(=O)CCC4=C3[C@@H](c3ccc(N(C)C)cc3)C[C@@]21C    1.0
6  O=C1Cc2cc(CCN3CCN(c4nsc5ccccc45)CC3)c(Cl)cc2N1    1.0
7  O=C(CCCN1CCC(O)(c2ccc(Cl)cc2)CC1)c1ccc(F)cc1    0.0
8          COc1ccc2cc([C@H](C)C(=O)O)ccc2c1    0.0
9  COc1ccc(-c2ccc3cc(C(=O)O)ccc3c2)cc1C12CC3CC(CC(C3)C1)C2    0.0

Outcome? OC(CCN1CCCCC1)(c1ccccc1)C1CC2C=CC1C2 (stereo not given)
0.0

---

Please go through the items and note down their inclusion score.
Test: reducers of polyQ inclusions in PC12 cells, cell-based, NGF-treated PC12, GFPQ80 (AID 1614);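 also: lower means fewer inclusions and 0 means no inclusions at all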
Settings: PC12 NGF-treated GFP-polyQ80 inclusion reduction
One number for each entry.

Some molecules with recorded inclusion score:
> print(dat)
                                   molecule  experimental.result
1  CC(C(=O)O)c1cccc(C(=O)c2ccccc2)c1 (stereo not given)                    2
2  CC(C)NCC(O)COc1cccc2ccccc12 (stereo not given)                    2
3                            C[N+](C)(C)CCO                    2

Return reported inclusion score values for all items listed beneath this line.
1. O=C(O)CCC(=O)OC[C@@H](NC(=O)C(Cl)Cl)[C@H](O)c1ccc([N+](=O)[O-])cc1
2. N[C@@H](Cc1c[nH]c2ccccc12)C(=O)O
3. C1CNCCN1

1. 2
2. 2
3. 2

Return reported inclusion score values for all items listed beneath this line.
1. CCOc1ccccc1OCC1CNCCO1 (stereo not given)
2. NCCCS(=O)(=O)O
3. COc1c(C)c2c(c(O)c1C/C=C(\C)CCC(=O)O)C(=O)OC2
4. NC(N)=NCCCCN=C(N)N
5. CC(C(=O)O)c1cccc(Oc2ccccc2)c1 (stereo not given)
6. CC(=O)OCC(=O)[C@@]1(O)CCC2C3CCC4=CC(=O)CC[C@]4(C)C3[C@@H](O)C[C@@]21C (stereo not given in full)

1. 2
2. 2
3. 1
4. 2
5. 2
6. 2

Return reported inclusion score values for all items listed beneath this line.
1. COc1cc(C)c2c(=O)cc(-c3ccccc3)oc2c1
2. CC(C)OC(=O)C(C)(C)Oc1ccc(C(=O)c2ccc(Cl)cc2)cc1

1: 1; 2: 0

inclusion score reported for this molecule `O=C1C[C@@H](c2ccc(O)cc2)Oc2cc(O)cc(O)c21` : 2
